system: TYKNU; experiment: fractional viability relative to vehicle; TYKNU is a high-grade serous ovarian cancer line; higher = less growth inhibition; conditions: 10uM; 72 h; genotype: sgCTRLA1 (non-targeting control)
Where a name gives a salt, the structure may show the parent alone. In all, about 2,000 compounds were measured (“fractional viability relative to vehicle”: median about 0.91, lowest 2% from about 0.045 on). Shown is part of a subset that was picked to be rich in the lowest values.
Lab note: compare fractional viability with 0.9, writing true if less and false if equal or more.

compound: COc1ccc2cc(OCC3(C(=O)O)CN(C(=O)c4ccc(F)cc4)C3)ccc2c1
discrete label: false

compound: O=C(/C=C/C=C/c1ccc2c(c1)OCO2)N1CCCCC1 [Piperine]
discrete label: false

compound: CS(=O)(=O)N1CCN(Cc2cc3nc(-c4cccc5[nH]ncc45)nc(N4CCOCC4)c3s2)CC1
discrete label: true

compound: COc1ccc(-c2ccc3ncc4c(c3c2)n(-c2ccc(N3CCNCC3)c(C(F)(F)F)c2)c(=O)n4C)cn1
discrete label: true

compound: NC1=N[C@@](c2cccc(-c3cncnc3)c2)(c2ccnc(C(F)F)c2)c2cccc(F)c21
discrete label: true

(Q) API: query returns whether the compound falls strictly under 0.9 in fractional viability. Query: C[C@@H]1O[C@@H](O[C@H]2[C@H](Oc3cc(O)c4c(c3)O[C@H](c3ccc(O)cc3)CC4=O)O[C@H](CO)[C@@H](O)[C@@H]2O)[C@H](O)[C@H](O)[C@H]1O [Naringin]
(A) false

(Q) API: query returns whether the compound falls strictly under 0.9 in fractional viability. Query: COc1ccc([C@]2(C#N)CC[C@@H](C(=O)O)CC2)cc1OC1CCCC1 [Cilomilast]
(A) false

(Q) API: query returns whether the compound falls strictly under 0.9 in fractional viability. Query: CCOC(=O)[C@H](CCc1ccccc1)N[C@H]1CS[C@H](c2cccs2)CN(CC(=O)O)C1=O [Temocapril HCl]
(A) false

(Q) API: query returns whether the compound falls strictly under 0.9 in fractional viability. Query: CC(=O)c1cc2c(o1)C(=O)c1ccccc1C2=O [Napabucasin]
(A) true

(Q) API: query returns whether the compound falls strictly under 0.9 in fractional viability. Query: O=c1ncccn1[C@@H]1O[C@H](CO)[C@@H](O)[C@H]1O [Zebularine]
(A) false
